Consider the following binders and their measured IC50 readings.
Assayed target: T1, human folate receptor alpha (hFRα), recombinant protein (human, UniProt P15328 25-233)
T1 construct: Bought recombinant proteins (His-tagged, or biotinylated via Avi-tag, e.g. AcroBiosystems FO1-H82E2, F01-H52H1); also called hFOLR1; huFOLR1
T1 sequence (P15328 25-233 limits assumed): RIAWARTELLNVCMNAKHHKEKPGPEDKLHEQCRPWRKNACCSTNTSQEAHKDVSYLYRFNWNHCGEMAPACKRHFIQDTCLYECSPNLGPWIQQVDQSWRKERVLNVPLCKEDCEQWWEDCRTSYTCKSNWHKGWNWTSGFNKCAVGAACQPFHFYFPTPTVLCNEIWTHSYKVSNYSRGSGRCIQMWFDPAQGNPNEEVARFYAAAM
Protocol: competition AlphaLISA against 2MFR67-Flag3-His6 on human FRα
Respond with the bare value in nM.

* P01500002 = h2 variant 2HFO42: 2HF042(Q1E, Q5V, A14P, V40A, L79Y, K83R, K105Q, Q108L)-HIS6 (VHH, Entry includes the tag) VHH: EVQLVESGGGLVQPGGSLRLSCAASGSGFSGMIMGWYRQAPGKQRELVATVTSHGTTNYADSVKGRFTISRDNAKNTVYLQMNSLRPEDTAVYYCNAHFPGIYWGQGTLVTVSS | 43.7

The record that follows has no IC50 shown yet.
stdin: Fill in the blank: the reported IC50 of P01500001 = humanised variant 1 (h1) 2HFO42-His6: 2HF042(Q1E, Q5V, A14P, V40A, L79Y, K83R, Q108L)-HIS6 (VHH, Entry includes the tag; also called P0150001; humanised 2HFO42) VHH: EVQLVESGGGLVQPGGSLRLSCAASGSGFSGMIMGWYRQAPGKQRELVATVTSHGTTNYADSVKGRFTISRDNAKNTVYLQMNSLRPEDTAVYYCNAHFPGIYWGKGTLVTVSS is ____.
stdout: 37.3
